Would you kindly list CC50 for each of these compounds?
Test system: BHK-21 cells

{"compound": "CC(=O)Oc1cc2c(c(C)c1OC(C)=O)CC=C1[C@@]2(C)CC[C@@]2(C)C3C[C@](C)(C(=O)O)CC[C@]3(C)CC[C@]12C (some centres unmarked) [Dihydrocelastryl diacetate]", "observed_result": "> 20 µM"}

Next item in the queue.
Prompt: I'd like to know its CC50. The compound in question is CC(=O)[O][Hg][c]1ccccc1 [Phenylmercuric acetate]
Completion: 5.35 µM
